# Tested on: zymostenol accumulation (EBP) in EpiSC-derived OPCs
# EXPERIMENT: GC/MS-based sterol profiling, zymostenol accumulation in EpiSC-derived OPCs
# Assay type: cell-based, mouse
# TEST_CONTEXT: Mus musculus, 24 h, EpiSC-derived OPCs, 24 hr, 8 doses from 0.15 nM to 333 nM; read-out: Mouse Zymostenol GCMS EC50
REPORTED_PROPERTY: EC50 (nM)

For orientation, consider the following solved cases.
MOLECULE	QUANTITY_UNIT	QUANTITATIVE_READOUT
CC(C)n1nc(-c2cccc(C(F)(F)F)n2)nc1[C@H]1CC[C@H](N2CCOC[C@H]2C)CC1 (single isomer, unassigned)	nM	112
CC(C)n1nc(-c2cncc(C(F)(F)F)c2)cc1[C@H]1[C@@H]2C[C@H](N3CCOCC3)C[C@@H]21	nM	5.88

1: CC(C)n1nc(-c2cncc(C(F)(F)F)c2)cc1[C@H]1[C@@H]2C[C@@H](N3CCO[C@H](C)C3)C[C@@H]21 (single isomer, unassigned)
2: CC(C)n1nc(-c2cccc(C(F)(F)F)c2)cc1[C@H]1[C@@H]2C[C@@H](N3CCCOCC3)C[C@@H]21
IN: Pick one: 1 or 2 . Which one has the lower reported EC50? Response format: the label of the selected entry.
OUT: 2
(2: 5.46 nM, 1: 78 nM)

====

# MEASUREMENT_TARGET: human emopamil binding protein and human 7-dehydrocholesterol reductase (hEBP-DHCR7) (Homo sapiens (Human), UniProt Q15125)
# Sequence (Q15125 whole entry): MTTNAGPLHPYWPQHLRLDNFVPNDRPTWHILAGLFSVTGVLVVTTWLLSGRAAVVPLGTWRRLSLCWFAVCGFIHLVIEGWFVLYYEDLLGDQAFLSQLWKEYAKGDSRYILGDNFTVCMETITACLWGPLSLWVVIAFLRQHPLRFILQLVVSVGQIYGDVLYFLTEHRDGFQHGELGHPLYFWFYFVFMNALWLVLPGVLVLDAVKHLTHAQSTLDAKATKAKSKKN
REPORTED_PROPERTY: Ki (nM)

COMPOUND	Ki [nM]
CC(C)n1nc(-c2ccc(C#N)cc2)cc1[C@H]1[C@@H]2C[C@H](N3CCCOCC3)C[C@@H]21	10.9

A: CC(C)n1nc(-c2cncc(C(F)(F)F)c2)cc1[C@H]1[C@@H]2C[C@H](N3CCO[C@H](C)C3)C[C@@H]21 (single isomer, unassigned)
B: Cc1ccccc1-c1cc([C@H]2[C@@H]3C[C@H](N4CCCOCC4)C[C@@H]32)n(C(C)C)n1 (single isomer, unassigned)
IN: Smaller Ki value, A vs B ? Pick one; state its label.
OUT: B

====

# MEASUREMENT_TARGET: human emopamil binding protein and human 7-dehydrocholesterol reductase (hEBP-DHCR7) (Homo sapiens (Human), UniProt Q15125)
pKi: −log10 of the molar value.
REPORTED_PROPERTY: pKi

Reference set, count: 2
COMPOUND	QUANTITATIVE_READOUT
CC(C)n1nc(-c2ccc(C(F)(F)F)cc2)cc1[C@H]1[C@@H]2C[C@@H](N3CCCOCC3)C[C@@H]21	7.80
CC(C)n1nc(-c2cccc(C(F)(F)F)c2)nc1[C@H]1[C@@H]2C[C@@H](N3CCOC[C@@H]3C)C[C@@H]21	7.30

1: CC(C)n1nc(-c2cncc(C(F)(F)F)c2)nc1[C@H]1[C@@H]2C[C@H](N3CCOC[C@H]3C)C[C@@H]21
2: CC(C)n1nc(-c2cncc(C(F)(F)F)c2)cc1[C@H]1[C@@H]2CC(N3CCOC[C@@H]3C)C[C@@H]21 (single isomer, unassigned)
IN: Response body: label of entry with the larger pKi; valid values 1 , 2 . Return value: the label identifying the chosen record.
OUT: 1

A: CC(C)n1nc(-c2ccc(C(F)(F)F)nc2)cc1[C@H]1CC[C@@H](N2CCN(CCO)CC2)C1 (single isomer, unassigned)
B: CC(C)n1nc(-c2cccc(F)c2)cc1[C@H]1[C@@H]2C[C@H](N3CCCOCC3)C[C@@H]21
IN: Hi there! Just curious which has the higher pKi between A and B . Your answer should be the label attached to the chosen record.
OUT: B

Data origin: patent US20260008775A1
